# Experimental System: GDP-bound KRAS wild-type protein (Homo sapiens, UniProt P01116)
# Sequence (P01116 whole entry): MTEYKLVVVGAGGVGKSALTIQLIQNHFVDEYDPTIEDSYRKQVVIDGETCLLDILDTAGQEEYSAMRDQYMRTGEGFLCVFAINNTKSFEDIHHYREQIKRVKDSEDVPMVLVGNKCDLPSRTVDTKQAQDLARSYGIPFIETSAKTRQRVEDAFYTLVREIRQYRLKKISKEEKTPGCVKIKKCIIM
# Method Description: Binding to KRAS by surface plasmon resonance (SPR), Single Cycle Kinetics
# Applied Conditions: SPR, Single Cycle Kinetics, GDP-bound KRAS wild-type protein; read-out: KRAS KD
pKd: −log10 of the molar value.
Measurement Name: pKd

chemical_structure=CCC[C@H]1C(=O)N[C@@H](C2CCCC2)C(=O)N(C)CC(=O)N(C)[C@H]2C/C=C\CCN(C2=O)[C@@H](Cc2ccc(C(F)(F)F)cc2)C(=O)N(C)CC(=O)N[C@@H](CCc2ccc(C(F)(F)F)c(Cl)c2)C(=O)N2CC3(CC3)C[C@H]2C(=O)NC2(CC(C)(C)C2)C(=O)N(C)[C@@H](C2CCCC2)C(=O)N(C)[C@H](C(=O)N(C)C)CC(=O)N1C measurement_name=pKd numeric_result=9.47
chemical_structure=CCC[C@H]1C(=O)N[C@@H]([C@@H](C)CC)C(=O)N(C2CC2)CC(=O)N(C)[C@H]2C/C=C\CCN(C2=O)[C@@H](Cc2ccc(C(F)(F)F)cc2)C(=O)N(C)CC(=O)N[C@@H](CCc2ccc(C(F)(F)F)c(OC)c2)C(=O)N2C[C@@H](C)C[C@H]2C(=O)N(C)C2(CCC2)C(=O)N(C)[C@@H](C2CCCC2)C(=O)N(C)[C@H](C(=O)N(C)C)CC(=O)N1C measurement_name=pKd numeric_result=9.80
chemical_structure=CCCO[C@H](C)[C@@H]1NC(=O)[C@H](CC(C)C)N(C)C(=O)C[C@@H](C(=O)N(C)C)N(C)C(=O)[C@H](C2CCCC2)N(C)C(=O)C2(CC(C)(C)C2)NC(=O)[C@@H]2C[C@@H](OCC)CN2C(=O)[C@H](CCc2cc(F)c(C(F)(F)F)c(F)c2)NC(=O)CN(C)C(=O)[C@H](Cc2ccc(C(F)(F)F)cc2)N2CC/C=C\C[C@@H](C2=O)N(C)C(=O)CN(C)C1=O measurement_name=pKd numeric_result=10.26
chemical_structure=CCC[C@H]1C(=O)N[C@@H]([C@@H](C)CC)C(=O)N(C)CC(=O)N(C)[C@H]2C/C=C\CCN(C2=O)[C@@H](Cc2ccc(C(F)(F)F)cc2)C(=O)N(C)CC(=O)N[C@@H](CCc2cc(F)c(C(F)(F)F)c(F)c2)C(=O)N(C)[C@@H](COC)C(=O)NC2(CC(C)(C)C2)C(=O)N(C)[C@@H](C2CCCC2)C(=O)N(C)[C@H](C(=O)N(C)C)CC(=O)N1C measurement_name=pKd numeric_result=9.40
chemical_structure=CCCN(C)C(=O)[C@@H]1CC(=O)N(C)[C@@H](C2CC2)C(=O)N[C@@H]([C@@H](C)CC)C(=O)N(C)CC(=O)N(C)[C@H]2C/C=C\CCN(C2=O)[C@@H](Cc2ccc(C(F)(F)F)cc2)C(=O)N(C)CC(=O)N[C@@H](CCc2cc(F)c(C(F)(F)F)c(F)c2)C(=O)N2C[C@@H](C)C[C@H]2C(=O)NC2(CCC2)C(=O)N(C)[C@@H](C2CCCC2)C(=O)N1C measurement_name=pKd numeric_result=9.92
chemical_structure=CCC[C@H]1C(=O)N[C@@H]([C@@H](C)CC)C(=O)N(C)CC(=O)N(C)[C@H]2C/C=C\CCN(C2=O)[C@@H](CC2CCC(F)(F)CC2)C(=O)N(C)CC(=O)N[C@@H](CCc2cc(F)c(C(F)(F)F)c(F)c2)C(=O)N2C[C@H](OCC)C[C@H]2C(=O)NC2(CC(C)(C)C2)C(=O)N(C)[C@@H](C(CC)CC)C(=O)N(C)[C@H](C(=O)N(C)C)CC(=O)N1C measurement_name=pKd numeric_result=9.26
chemical_structure=CCOC[C@H]1C(=O)N[C@@H]([C@@H](C)CC)C(=O)N(C)CC(=O)N(C)[C@H]2C/C=C\CCN(C2=O)[C@@H](CC2CCCCC2)C(=O)N(C)CC(=O)N[C@@H](CCc2ccc(C(F)(F)F)c(OC)c2)C(=O)N2C[C@@H](C)C[C@H]2C(=O)N(C)C2(CCC2)C(=O)N(C)[C@@H](C2CCCC2)C(=O)N(C)[C@H](C(=O)N(C)C)CC(=O)N1C measurement_name=pKd numeric_result=9.19
chemical_structure=CCCN(C)C(=O)[C@@H]1CC(=O)N(C)[C@@H](CC(F)F)C(=O)N[C@@H]([C@@H](C)CC)C(=O)N(C)CC(=O)N(C)[C@H]2C/C=C\CCN(C2=O)[C@@H](Cc2ccc(C(F)(F)F)cc2)C(=O)N(C)CC(=O)N[C@@H](CCc2cc(F)c(C(F)(F)F)c(F)c2)C(=O)N2C[C@H](F)C[C@H]2C(=O)NC2(CC(C)(C)C2)C(=O)N(C)[C@@H](C2CCCC2)C(=O)N1C measurement_name=pKd numeric_result=10.12
chemical_structure=CCC[C@H]1C(=O)N[C@@H]([C@@H](C)CC)C(=O)N(C)CC(=O)N(C)[C@H]2C/C=C\CCN(C2=O)[C@@H](Cc2ccc(C)cc2)C(=O)N(C)CC(=O)N[C@@H](CCc2ccc(C(F)(F)F)c(Cl)c2)C(=O)N2C[C@H](OCC)C[C@H]2C(=O)NC2(CC(C)(C)C2)C(=O)N(C)[C@@H](CC(C)C)C(=O)N(C)[C@H](C(=O)N(C)C)CC(=O)N1C measurement_name=pKd numeric_result=9.42

---

Where a SMILES comes first, the peptide text is derived from it. Bridges are numbered along the chain shown (N, C = ends). [ ]: non-standard residue; d: D form. hPhe(3-Cl-4-CF3) = N[C@@H](CCc1ccc(C(F)(F)F)c(Cl)c1)C(=O)O; NPrPhe(4-CF3) = CCCN[C@@H](Cc1ccc(C(F)(F)F)cc1)C(=O)O; NMeGly(cPent) = CN[C@H](C(=O)O)C1CCCC1; Pro(4,4-F2) = O=C(O)[C@@H]1CC(F)(F)CN1; NMeD = CN[C@@H](CC(=O)O)C(=O)O; NMeL = CN[C@@H](CC(C)C)C(=O)O; Ac5c = NC1(C(=O)O)CCCC1; Aze = O=C(O)[C@@H]1CCN1; Sar = CNCC(=O)O
Entries with reported IC50 on human lung cancer strain NCI-H441
Measurement Name: IC50 (nM)

compound="CCCN1C(=O)CN(C)C(=O)[C@@H]2CCN2C(=O)[C@H]([C@@H](C)CC)NC(=O)[C@H](CC(C)C)N(C)C(=O)C[C@@H](C(=O)N(C)C)N(C)C(=O)[C@H](C2CCCC2)N(C)C(=O)C2(CCCC2)NC(=O)[C@@H]2CC(F)(F)CN2C(=O)[C@H](CCc2ccc(C(F)(F)F)c(Cl)c2)NC(=O)CN(C)C(=O)[C@@H]1Cc1ccc(C(F)(F)F)cc1 [PP0431] ([NMeL]I[Aze][Sar][NPrPhe(4-CF3)][Sar][hPhe(3-Cl-4-CF3)][Pro(4,4-F2)][Ac5c][NMeGly(cPent)][NMeD]-NMe2; lactam N-11)" measurement_name=IC50 unit_of_measurement=nM numeric_result=9.9
compound=CCC[C@H]1C(=O)N[C@@H]([C@@H](C)CC)C(=O)N(C)CC(=O)N(C)[C@H]2C/C=C\CCN(C2=O)[C@@H](Cc2ccc(C(F)F)cc2)C(=O)N(C)CC(=O)N[C@@H](CCc2ccc(Cl)c(Cl)c2)C(=O)N2C[C@H](OC(C)C)C[C@H]2C(=O)NC2(CC(C)(C)C2)C(=O)N(C)[C@@H](C(CC)CC)C(=O)N(C)[C@H](C(=O)N(C)C)CC(=O)N1C measurement_name=IC50 unit_of_measurement=nM numeric_result=26.8
compound=CCC(CC)[C@H]1C(=O)N(C)[C@H](C(=O)N2CCCCC2)CC(=O)N(C)[C@@H](COC)C(=O)N[C@@H]([C@@H](C)CC)C(=O)N(C)CC(=O)N(C)[C@H]2C/C=C\CCN(C2=O)[C@@H](Cc2ccc(C(F)(F)F)cc2)C(=O)N(C)CC(=O)N[C@@H](CCc2cc(F)c(C(F)(F)F)c(F)c2)C(=O)N2C[C@H](OC(C)C)C[C@H]2C(=O)NC2(CC(C)(C)C2)C(=O)N1C measurement_name=IC50 unit_of_measurement=nM numeric_result=53

---

# Experimental System: GDP-bound KRAS wild-type protein (Homo sapiens, UniProt P01116)
# Method Description: Binding to KRAS by surface plasmon resonance (SPR), Single Cycle Kinetics
# Applied Conditions: SPR, Single Cycle Kinetics, 1:1 binding model; GDP-bound KRAS wild-type protein; read-out: KRAS KD
pKd: −log10 of the molar value.
Measurement Name: pKd

compound="CCO[C@@H]1C[C@H]2C(=O)NC3(CCC3)C(=O)N(C)[C@@H](C3CCCC3)C(=O)N(C)[C@H](C(=O)N(C)C)CC(=O)N(C)[C@@H](CC3CC3)C(=O)N[C@@H]([C@@H](C)CC)C(=O)N(C)CC(=O)N(C)[C@H]3C/C=C\\CCN(C3=O)[C@@H](Cc3ccc(F)cc3)C(=O)N(C)CC(=O)N[C@@H](CCc3cc(F)c(C(F)(F)F)c(F)c3)C(=O)N2C1 [PP1529]" experimental_system="GDP-bound KRAS wild-type protein (Homo sapiens, UniProt P01116)" numeric_result=10.09
compound="CCCCCC[C@H]1C(=O)N[C@@H]([C@@H](C)CC)C(=O)N(C)CC(=O)N(C)[C@H]2C/C=C\\CCN(C2=O)[C@@H](Cc2ccc(C(F)(F)F)cc2)C(=O)N(C)CC(=O)N[C@@H](CCc2ccc(C(F)(F)F)c(OC)c2)C(=O)N2C[C@H](OCC)C[C@H]2C(=O)NC2(CCC2)C(=O)N(C)[C@@H](C2CCCC2)C(=O)N(C)[C@H](C(=O)N(C)C)CC(=O)N1C [PP1246]" experimental_system="GDP-bound KRAS wild-type protein (Homo sapiens, UniProt P01116)" numeric_result=10.09
compound="CC[C@H](C)[C@@H]1NC(=O)[C@H](CC2CCC2)N(C)C(=O)C[C@@H](C(=O)N(C)C)N(C)C(=O)[C@H](C2CCCC2)N(C)C(=O)C2(CCCC2)NC(=O)[C@@H]2CCCN2C(=O)[C@H](CCc2cc(F)c(C(F)(F)F)c(F)c2)NC(=O)CN(C)C(=O)[C@H](Cc2ccc(C(F)(F)F)cc2)N2C[C@H](C)CC[C@@H](C2=O)N(C)C(=O)CN(C)C1=O [PP1386]" experimental_system="GDP-bound KRAS wild-type protein (Homo sapiens, UniProt P01116)" numeric_result=10.09
